All values here come from paper PMC9482650.

- Experimental target: T1, SNTG2, Q9NY99
- T1 sequence (Q9NY99 68-166, limits assumed, looked up): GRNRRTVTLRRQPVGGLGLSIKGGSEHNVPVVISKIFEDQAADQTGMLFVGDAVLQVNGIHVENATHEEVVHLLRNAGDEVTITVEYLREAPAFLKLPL
- Procedure text: holdup assay
- Set-up: key: below the threshold = too weak to quantify, mostly under pKd 3.1 to 4
- Test context: plain residues with an end cap or a label only (N-terminal biotin on a linker: ttds)
Reported pKd by item:
Quantity kind: pKd

binder="TVASEKESVM [SLC1A5, Q15758]" endpoint_result=3.75
binder="GQDSREETQL [KCNT2, Q6UVM3]" endpoint_result=4.39
binder="QSARYRDTEL [TJP2, Q9UDY2]" endpoint_result=3.84
binder="SRPQRTQTQV [HPV67-E6, A4U7F2]" endpoint_result=3.98
binder="IDNDTESTAL [ARHGAP17, Q68EM7]" endpoint_result=3.8
binder="STLTIFETAL [ABCC4, O15439]" endpoint_result=4.97
binder="SVWLRKETRV [CYSLTR2, Q9NS75]" endpoint_result=5.09
